# procedure summary: self-splicing fitness, log relative to wild type (ln ratio); higher = more splicing; Tetrahymena group I intron in knt gene, E. coli kanamycin selection, DiMSum; sequences stand for … in CUCUCU…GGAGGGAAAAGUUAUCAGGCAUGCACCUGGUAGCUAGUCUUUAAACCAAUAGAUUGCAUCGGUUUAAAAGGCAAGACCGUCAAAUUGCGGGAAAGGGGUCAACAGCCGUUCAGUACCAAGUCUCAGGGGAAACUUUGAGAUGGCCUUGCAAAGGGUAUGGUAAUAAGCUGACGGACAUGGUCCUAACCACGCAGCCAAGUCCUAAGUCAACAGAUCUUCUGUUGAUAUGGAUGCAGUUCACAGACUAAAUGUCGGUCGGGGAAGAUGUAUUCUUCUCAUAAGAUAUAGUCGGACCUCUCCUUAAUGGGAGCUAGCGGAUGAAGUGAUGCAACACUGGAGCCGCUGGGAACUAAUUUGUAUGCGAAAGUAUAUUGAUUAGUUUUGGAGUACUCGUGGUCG;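 also: selection with 25 µg/mL kanamycin versus none on LB agar overnight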
# experimental conditions: 30 °C
readout: self-splicing fitness (ln)
# respond with the number and nothing more

I have this sequence here, `AAAAAGCAAUAUUACGGAGC` , and I need its recorded self-splicing fitness (ln). -3.4

Data request, read-out self-splicing fitness (ln), for `GCCCAGCAAUAUUACGUCGG` -3.13

May I ask what self-splicing fitness (ln) has been recorded for `AACCAGCAAUAUUACGUAGA` ? -1.75

Which self-splicing fitness (ln) reading was recorded for the sequence `AAGCAGCAAUAUUACGCGCC` ? -1.33

Given the entry `UGAAAGCAAUAUUACGUAAU` , report its measured self-splicing fitness (ln). -3.71

Please give the measured self-splicing fitness (ln) for this sequence: `GCCAAGCAAUAUUACGUACA` -2.65

Give the measured self-splicing fitness (ln) of `GCUCAGCAAUAUUACGACAA` . -1.6

I'd like to know its self-splicing fitness (ln). The sequence in question is `GCGAAGCAAUAUUACGUACA` -1.9

Could you share which self-splicing fitness (ln) value was measured for `GGGCAGCAAUAUUACGUAUC` ? -0.951

So what's the measured self-splicing fitness (ln) for this one? `UGCAAGCAAUAUUACGUCAC` -2.88

For the sequence shown here, `GGAAAGCAAUAUUACGCUCU` , give the reported self-splicing fitness (ln). -3.11

Given `UCCGAGCAAUAUUACGGUAA` , state its recorded self-splicing fitness (ln). -2.21

Data request, read-out self-splicing fitness (ln), for `GGCAAGCAAUAUUACGUCUU` -0.676

Can you share its self-splicing fitness (ln)? I mean this sequence: `CCUCAGCAAUAUUACGAUCC` -2.43

Looking for the measured self-splicing fitness (ln) of `AUUCAGCAAUAUUACGGAAA` , can you help? -1.03

GET /values?readout=self-splicing fitness (ln)&item= `GACGAGCAAUAUUACGAAGU` -3.26

Need self-splicing fitness (ln), item `ACAUAGCAAUAUUACGGUGG` -3.62

# self-splicing fitness (ln) lookup, item `CCGAAGCAAUAUUACGUCGG` -3.35

----------
# procedure summary: self-splicing fitness, log relative to wild type (ln ratio); higher = more splicing; Tetrahymena group I intron in knt gene, E. coli kanamycin selection, DiMSum; sequences stand for … in CUCUCU…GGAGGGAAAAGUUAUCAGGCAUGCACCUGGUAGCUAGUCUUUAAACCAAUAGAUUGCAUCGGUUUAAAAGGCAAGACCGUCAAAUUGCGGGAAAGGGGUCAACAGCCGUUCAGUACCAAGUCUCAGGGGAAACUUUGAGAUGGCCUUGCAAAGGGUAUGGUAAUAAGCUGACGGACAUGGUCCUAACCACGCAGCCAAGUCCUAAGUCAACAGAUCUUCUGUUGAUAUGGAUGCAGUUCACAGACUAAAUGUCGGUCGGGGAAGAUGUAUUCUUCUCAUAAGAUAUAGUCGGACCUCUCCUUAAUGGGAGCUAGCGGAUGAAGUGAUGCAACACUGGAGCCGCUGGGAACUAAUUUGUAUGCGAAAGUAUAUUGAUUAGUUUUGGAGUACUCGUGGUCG
# experimental conditions: 30 °C
Parameter threshold = -2. Response is True when self-splicing fitness (ln) meets or exceeds it, else False.

Hi team, for `UCUAAGCAAUAUUACGAAGC` , is the recorded self-splicing fitness (ln) at or above -2? True

Does `GUAGAGCAAUAUUACGGAGU` have a reported self-splicing fitness (ln) of at least -2? False

Determine whether this sequence has self-splicing fitness (ln) no lower than -2: `GAAGAGCAAUAUUACGAUGG` False

Is the recorded value of self-splicing fitness (ln) equal to or greater than -2 for this sequence? `CGCUAGCAAUAUUACGCCAU` False

Check the entry `UACUAGCAAUAUUACGGCCC` : does self-splicing fitness (ln) equal or exceed -2? True

Answer whether self-splicing fitness (ln) of `GGCUAGCAAUAUUACGUGAG` is greater than or equal to -2. True

Does the reported self-splicing fitness (ln) for `GUUUAGCAAUAUUACGAAAU` fall at or above the -2 mark? True

Answer whether self-splicing fitness (ln) of `UAACAGCAAUAUUACGGCUC` is greater than or equal to -2. True

Could you verify whether the entry `AAGAAGCAAUAUUACGACAU` shows self-splicing fitness (ln) of no less than -2? True

hey, is self-splicing fitness (ln) for this one >= -2? `CCUUAGCAAUAUUACGACUG` False

Textbook exercise: given the entry `ACGCAGCAAUAUUACGAGUU` , state whether its self-splicing fitness (ln) is greater than or equal to -2. False

Given the entry `AGAUAGCAAUAUUACGAUAC` , answer whether its self-splicing fitness (ln) meets or surpasses -2. False

Does `UGAUAGCAAUAUUACGGGAA` have a reported self-splicing fitness (ln) of at least -2? False

Does the reported self-splicing fitness (ln) for `AAGGAGCAAUAUUACGCCGG` fall at or above the -2 mark? False

Form field: self-splicing fitness (ln) at least -2? Entry: `GUUCAGCAAUAUUACGCGUC` True

hey, is self-splicing fitness (ln) for this one >= -2? `AGGAAGCAAUAUUACGAGAG` False

Textbook exercise: given the entry `UCGGAGCAAUAUUACGUCGA` , state whether its self-splicing fitness (ln) is greater than or equal to -2. True

Dear colleague, could you confirm whether `AGAAAGCAAUAUUACGUAUC` has self-splicing fitness (ln) at or above -2? False

Dear colleague, could you confirm whether `GACGAGCAAUAUUACGUUAG` has self-splicing fitness (ln) at or above -2? False

Does the sequence `GCGUAGCAAUAUUACGUCCU` have recorded self-splicing fitness (ln) that is -2 or more? True

Given the entry `GUGAAGCAAUAUUACGUCCU` , answer whether its self-splicing fitness (ln) meets or surpasses -2. True

Determine whether this sequence has self-splicing fitness (ln) no lower than -2: `GAACAGCAAUAUUACGCAGG` False

Decide: self-splicing fitness (ln) of `UCAUAGCAAUAUUACGUACG` >= -2? True

Does the reported self-splicing fitness (ln) for `GAGAAGCAAUAUUACGUACC` fall at or above the -2 mark? True

Quick check, self-splicing fitness (ln) >= -2? `GCUAAGCAAUAUUACGACGU` True

Is the recorded value of self-splicing fitness (ln) equal to or greater than -2 for this sequence? `UCGGAGCAAUAUUACGGACG` True

hey, is self-splicing fitness (ln) for this one >= -2? `UCGAAGCAAUAUUACGCUAU` False

# bool: self-splicing fitness (ln) of `AAAAAGCAAUAUUACGCGCA` >= -2 True

Evaluate `CGUAAGCAAUAUUACGUGAA` : self-splicing fitness (ln) at minimum -2? False

Assess whether reported self-splicing fitness (ln) for `UCUCAGCAAUAUUACGUAUC` sits at -2 or higher. False

Would you say `ACGCAGCAAUAUUACGCGAG` shows self-splicing fitness (ln) at minimum -2? False

Is self-splicing fitness (ln) for `CUGCAGCAAUAUUACGUAAC` at or above -2? False

I'd appreciate it if you could say whether `AAAGAGCAAUAUUACGUCCC` has self-splicing fitness (ln) at least equal to -2. False

Could you tell me if the measured self-splicing fitness (ln) of `CGAGAGCAAUAUUACGAAGG` reaches -2 or more? False

self-splicing fitness (ln) >= -2 for `UCAAAGCAAUAUUACGCCAC` ? False

I'd appreciate it if you could say whether `UGAGAGCAAUAUUACGCACA` has self-splicing fitness (ln) at least equal to -2. False

Reported self-splicing fitness (ln) at or above -2? `CUCCAGCAAUAUUACGAACG` True

Hi team, for `UUAUAGCAAUAUUACGGUAC` , is the recorded self-splicing fitness (ln) at or above -2? False

Reported self-splicing fitness (ln) at or above -2? `CACAAGCAAUAUUACGUUGG` False

Exam item: decide whether the reported self-splicing fitness (ln) for `CAUGAGCAAUAUUACGCCGC` is at least -2. False

Does self-splicing fitness (ln) meet or surpass -2 for `GGUGAGCAAUAUUACGUGUG` ? False

Does self-splicing fitness (ln) meet or surpass -2 for `GCGGAGCAAUAUUACGAGAU` ? False

Check the entry `CAUUAGCAAUAUUACGUACU` : does self-splicing fitness (ln) equal or exceed -2? False

Item `UUUUAGCAAUAUUACGCCGA` with self-splicing fitness (ln) of -2 or above? True

Could you verify whether the entry `GUUAAGCAAUAUUACGUUUC` shows self-splicing fitness (ln) of no less than -2? True

hey, is self-splicing fitness (ln) for this one >= -2? `ACAGAGCAAUAUUACGACGC` True

Threshold query (self-splicing fitness (ln) >= -2) on `GUUCAGCAAUAUUACGUAGC` True

# bool: self-splicing fitness (ln) of `UAACAGCAAUAUUACGCCAU` >= -2 False

Determine whether measured self-splicing fitness (ln) meets or exceeds -2 for `CUAUAGCAAUAUUACGGUGC` False

API: above_or_equal(metric=self-splicing fitness (ln), cutoff=-2) for item `CGAGAGCAAUAUUACGAUGA` False

Check the entry `GGGAAGCAAUAUUACGGCAG` : does self-splicing fitness (ln) equal or exceed -2? False

Hi team, for `AAAAAGCAAUAUUACGGAUC` , is the recorded self-splicing fitness (ln) at or above -2? True

Could you tell me if the measured self-splicing fitness (ln) of `UGUGAGCAAUAUUACGUUCA` reaches -2 or more? False
